# Tested on: T4 synthesis
# EXPERIMENTAL PROTOCOL: Reference chemical evaluation: inhibition of T4 synthesis in 3D microtissue cultures
# Format: cell-based, human
# STATED CONDITIONS: Homo sapiens, 120 h, 120-h treatment days 9-14; 1 mIU/mL bovine TSH; 7,500 cells/well; read-out: Average half-maximal inhibitory concentrations (IC50), T4 synthesis
PARAMETER: pIC50
Answers are plain numbers, as −log10 of the molar value.

// query May I ask what pIC50 has been recorded for CCCc1cc(=O)[nH]c(=S)[nH]1 [6-propyl-2-thiouracil] ?
// result 6.18
